From: paper PMC9977398

HC50 for assorted compounds
- Test system: human erythrocytes
- Method summary: Haemolysis assay
- Type: cell-based
- Condition summary: human, 1 h, pH 7.4

{"columns": ["Compound", "HC50"],
 "data": [
  ["CCCCCCCCNC(=O)C[N+](C)(C)CCCNC(=O)C1NC(=O)C2NC(=O)C(NC(=O)C3NC(=O)C(CC(N)=O)NC(=O)C(NC(=O)C(CC(C)C)NC)C(O)c4ccc(c(Cl)c4)Oc4cc3cc(c4OC3OC(CO)C(O)C(O)C3OC3CC(C)(N)C(O)C(C)O3)Oc3ccc(cc3Cl)C2O)c2ccc(O)c(c2)-c2c(O)cc(O)cc21 (stereo not drawn)", ">500 µM"]
]}

**Q:** Test system human erythrocytes; read-out HC50; what value for CCCCCCNC(=O)C[N+](C)(C)CCCNC(=O)C1NC(=O)C2NC(=O)C(NC(=O)C3NC(=O)C(CC(N)=O)NC(=O)C(NC(=O)C(CC(C)C)NC)C(O)c4ccc(c(Cl)c4)Oc4cc3cc(c4OC3OC(CO)C(O)C(O)C3OC3CC(C)(N)C(O)C(C)O3)Oc3ccc(cc3Cl)C2O)c2ccc(O)c(c2)-c2c(O)cc(O)cc21 (stereo not drawn) ?
**A:** >500 µM

**Q:** State its HC50 on human erythrocytes: CCCCCCCCCCCCNC(=O)C[N+](C)(C)CCCNC(=O)C1NC(=O)C2NC(=O)C(NC(=O)C3NC(=O)C(CC(N)=O)NC(=O)C(NC(=O)C(CC(C)C)NC)C(O)c4ccc(c(Cl)c4)Oc4cc3cc(c4OC3OC(CO)C(O)C(O)C3OC3CC(C)(N)C(O)C(C)O3)Oc3ccc(cc3Cl)C2O)c2ccc(O)c(c2)-c2c(O)cc(O)cc21 (stereo not drawn)
**A:** 350 µM

----------
Known HC50 of a selection of compounds
- System: human erythrocytes
- Method summary: Haemolysis assay
- Assay type: cell-based
- Condition summary: human, 1 h, pH 7.4

**Q:** Would you kindly share the measured HC50 for CNC(CC(C)C)C(=O)NC1C(=O)NC(CC(N)=O)C(=O)NC2C(=O)NC3C(=O)NC(C(=O)NC(C(=O)NCCC[N+](C)(C)Cc4cccc5ccccc45)c4cc(O)cc(O)c4-c4cc3ccc4O)C(O)c3ccc(c(Cl)c3)Oc3cc2cc(c3OC2OC(CO)C(O)C(O)C2OC2CC(C)(N)C(O)C(C)O2)Oc2ccc(cc2Cl)C1O (stereo not shown) [VanQnaph (5)] ?
**A:** >500 µM

**Q:** I'd like to know its HC50. The compound in question is CNC(CC(C)C)C(=O)NC1C(=O)NC(CC(N)=O)C(=O)NC2C(=O)NC3C(=O)NC(C(=O)NC(C(=O)NCCC[N+](C)(C)Cc4ccc(-c5ccccc5)cc4)c4cc(O)cc(O)c4-c4cc3ccc4O)C(O)c3ccc(c(Cl)c3)Oc3cc2cc(c3OC2OC(CO)C(O)C(O)C2OC2CC(C)(N)C(O)C(C)O2)Oc2ccc(cc2Cl)C1O (stereo not shown) [VanQbiph (4)]
**A:** >500 µM

**Q:** Suppose we examine the compound CNC(CC(C)C)C(=O)NC1C(=O)NC(CC(N)=O)C(=O)NC2C(=O)NC3C(=O)NC(C(=O)NC(C(=O)NCCC[N+](C)(C)Cc4ccc(C)cc4)c4cc(O)cc(O)c4-c4cc3ccc4O)C(O)c3ccc(c(Cl)c3)Oc3cc2cc(c3OC2OC(CO)C(O)C(O)C2OC2CC(C)(N)C(O)C(C)O2)Oc2ccc(cc2Cl)C1O (stereo not shown) [VanQtol (2)] ; what HC50 value has been reported?
**A:** >500 µM

**Q:** Returns the measured HC50 for the input compound. Input: CNC(CC(C)C)C(=O)NC1C(=O)NC(CC(N)=O)C(=O)NC2C(=O)NC3C(=O)NC(C(=O)NC(C(=O)NCCC[N+](C)(C)Cc4ccccc4)c4cc(O)cc(O)c4-c4cc3ccc4O)C(O)c3ccc(c(Cl)c3)Oc3cc2cc(c3OC2OC(CO)C(O)C(O)C2OC2CC(C)(N)C(O)C(C)O2)Oc2ccc(cc2Cl)C1O (stereo not shown) [VanQph (1)]
**A:** >500 µM

----------
- System: VRSA 4 (vancomycin-resistant S. aureus)
- Method summary: MIC determination, micro-dilution broth
- Assay type: cell-based
- Condition summary: Staphylococcus aureus, read-out: Minimum inhibitory concentration, VRSA 4
compounds and their reported MIC
Provide the reading as a plain figure in µM.

{"columns": ["Compound", "Units", "MIC"],
 "data": [
  ["CCCCCCNC(=O)C[N+](C)(C)CCCNC(=O)C1NC(=O)C2NC(=O)C(NC(=O)C3NC(=O)C(CC(N)=O)NC(=O)C(NC(=O)C(CC(C)C)NC)C(O)c4ccc(c(Cl)c4)Oc4cc3cc(c4OC3OC(CO)C(O)C(O)C3OC3CC(C)(N)C(O)C(C)O3)Oc3ccc(cc3Cl)C2O)c2ccc(O)c(c2)-c2c(O)cc(O)cc21 (stereo not shown)", "µM", 6.3],
  ["CNC(CC(C)C)C(=O)NC1C(=O)NC(CC(N)=O)C(=O)NC2C(=O)NC3C(=O)NC(C(=O)NC(C(=O)NCCC[N+](C)(C)Cc4ccc(C(F)(F)F)cc4)c4cc(O)cc(O)c4-c4cc3ccc4O)C(O)c3ccc(c(Cl)c3)Oc3cc2cc(c3OC2OC(CO)C(O)C(O)C2OC2CC(C)(N)C(O)C(C)O2)Oc2ccc(cc2Cl)C1O (stereo not shown)", "µM", 15.8],
  ["CCCCCCCCCCCCNC(=O)C[N+](C)(C)CCCNC(=O)C1NC(=O)C2NC(=O)C(NC(=O)C3NC(=O)C(CC(N)=O)NC(=O)C(NC(=O)C(CC(C)C)NC)C(O)c4ccc(c(Cl)c4)Oc4cc3cc(c4OC3OC(CO)C(O)C(O)C3OC3CC(C)(N)C(O)C(C)O3)Oc3ccc(cc3Cl)C2O)c2ccc(O)c(c2)-c2c(O)cc(O)cc21 (stereo not shown)", "µM", 0.7]
]}

**Q:** Returns the measured MIC for the input compound. Input: CNC(CC(C)C)C(=O)NC1C(=O)NC(CC(N)=O)C(=O)NC2C(=O)NC3C(=O)NC(C(=O)NC(C(=O)NCCC[N+](C)(C)Cc4cccc5ccccc45)c4cc(O)cc(O)c4-c4cc3ccc4O)C(O)c3ccc(c(Cl)c3)Oc3cc2cc(c3OC2OC(CO)C(O)C(O)C2OC2CC(C)(N)C(O)C(C)O2)Oc2ccc(cc2Cl)C1O (stereo not shown)
**A:** 3.9

----------
- Test system: human erythrocytes
- Method summary: Haemolysis assay
- Type: cell-based
- Condition summary: human, 1 h, pH 7.4
Readout name: HC50 (µM)
Value expressed in µM; do not type the unit.

**Q:** Enter reported HC50 observed with human erythrocytes for CCCCCCCCCCCCCCNC(=O)C[N+](C)(C)CCCNC(=O)C1NC(=O)C2NC(=O)C(NC(=O)C3NC(=O)C(CC(N)=O)NC(=O)C(NC(=O)C(CC(C)C)NC)C(O)c4ccc(c(Cl)c4)Oc4cc3cc(c4OC3OC(CO)C(O)C(O)C3OC3CC(C)(N)C(O)C(C)O3)Oc3ccc(cc3Cl)C2O)c2ccc(O)c(c2)-c2c(O)cc(O)cc21 (centres unmarked)
**A:** 150

----------
- System: VRSA 4 (vancomycin-resistant S. aureus)
- Method summary: MIC determination, micro-dilution broth
- Assay type: cell-based
- Condition summary: Staphylococcus aureus, read-out: Minimum inhibitory concentration, VRSA 4
Measured MIC accompanies every entry in the list below.

Guide cases for MIC, answers given:
{"columns": ["Compound", "MIC"],
 "data": [
  ["CNC(CC(C)C)C(=O)NC1C(=O)NC(CC(N)=O)C(=O)NC2C(=O)NC3C(=O)NC(C(=O)NC(C(=O)NCCC[N+](C)(C)Cc4ccccc4)c4cc(O)cc(O)c4-c4cc3ccc4O)C(O)c3ccc(c(Cl)c3)Oc3cc2cc(c3OC2OC(CO)C(O)C(O)C2OC2CC(C)(N)C(O)C(C)O2)Oc2ccc(cc2Cl)C1O (stereo not drawn)", "> 30 µM"],
  ["CNC(CC(C)C)C(=O)NC1C(=O)NC(CC(N)=O)C(=O)NC2C(=O)NC3C(=O)NC(C(=O)NC(C(=O)NCCC[N+](C)(C)Cc4ccc(C)cc4)c4cc(O)cc(O)c4-c4cc3ccc4O)C(O)c3ccc(c(Cl)c3)Oc3cc2cc(c3OC2OC(CO)C(O)C(O)C2OC2CC(C)(N)C(O)C(C)O2)Oc2ccc(cc2Cl)C1O (stereo not drawn)", "16 µM"],
  ["CNC(CC(C)C)C(=O)NC1C(=O)NC(CC(N)=O)C(=O)NC2C(=O)NC3C(=O)NC(C(=O)NC(C(=O)NCCC[N+](C)(C)Cc4ccc(-c5ccccc5)cc4)c4cc(O)cc(O)c4-c4cc3ccc4O)C(O)c3ccc(c(Cl)c3)Oc3cc2cc(c3OC2OC(CO)C(O)C(O)C2OC2CC(C)(N)C(O)C(C)O2)Oc2ccc(cc2Cl)C1O (stereo not drawn)", "3.9 µM"],
  ["CCCCCCCCNC(=O)C[N+](C)(C)CCCNC(=O)C1NC(=O)C2NC(=O)C(NC(=O)C3NC(=O)C(CC(N)=O)NC(=O)C(NC(=O)C(CC(C)C)NC)C(O)c4ccc(c(Cl)c4)Oc4cc3cc(c4OC3OC(CO)C(O)C(O)C3OC3CC(C)(N)C(O)C(C)O3)Oc3ccc(cc3Cl)C2O)c2ccc(O)c(c2)-c2c(O)cc(O)cc21 (stereo not drawn)", "3.1 µM"],
  ["CCCCCCCCCCCCCCNC(=O)C[N+](C)(C)CCCNC(=O)C1NC(=O)C2NC(=O)C(NC(=O)C3NC(=O)C(CC(N)=O)NC(=O)C(NC(=O)C(CC(C)C)NC)C(O)c4ccc(c(Cl)c4)Oc4cc3cc(c4OC3OC(CO)C(O)C(O)C3OC3CC(C)(N)C(O)C(C)O3)Oc3ccc(cc3Cl)C2O)c2ccc(O)c(c2)-c2c(O)cc(O)cc21 (stereo not drawn)", "1.5 µM"]
]}

**Q:** For the compound CN[C@H](CC(C)C)C(=O)N[C@H]1C(=O)N[C@@H](CC(N)=O)C(=O)N[C@H]2C(=O)N[C@H]3C(=O)N[C@H](C(=O)N[C@H](C(=O)O)c4cc(O)cc(O)c4-c4cc3ccc4O)[C@H](O)c3ccc(c(Cl)c3)Oc3cc2cc(c3O[C@@H]2O[C@H](CO)[C@@H](O)[C@H](O)[C@H]2O[C@H]2C[C@](C)(N)[C@H](O)[C@H](C)O2)Oc2ccc(cc2Cl)[C@H]1O [Vancomycin, reference compound] , what MIC is on record?
**A:** 345 µM
